Recorded Antibacterial activity in the presence of rifampin (growth inhibition area around a well) for the following substances
system: Ps. aeruginosa ATCC 27853; assay: Sensitization to rifampin: well diffusion growth inhibition on LB plates containing rifampin; format: cell-based, Pseudomonas aeruginosa; details: 4 μg of compound, rifampin 0.1 μg/ml
Quick note: give the figure in square millimeters, leave out the unit.

Here are 8 substances together with their reported answers.
DA-Thr-Abu-cy[Dab-Dab-DPhe-Leu-Dab-Dab-Thr-] [NAB 7062] ... 0
OA-Thr-Abu-cy[Dab-Dab-DLeu-Leu-Dab-Dab-Thr-] [NAB 718] ... 0
OA-Thr-Dab-cy[Dab-Dab-DPhe-Leu-Dab-Abu-Thr-] [NAB 717] ... 0
DA-Thr-DSer-cy[Dab-Dab-DPhe-Leu-Dab-Dab-Thr-] [NAB 740] ... 64
OA-Thr-Abu-cy[Dab-Dab-DPhe-Leu-Dab-Dab-Leu-] [NAB 719] ... 0
OA-Thr-Dab-cy[Dab-Dab-DPhe-Leu-Abu-Dab-Thr-] [NAB 716] ... 0
OA-Thr-DSer-cy[Dab-Dab-DPhe-Thr-Dab-Dab-Thr-] [NAB 734] ... 20
OA-Thr-DSer-cy[Dab-Dab-DPhe-Leu-Dab-Dab-Thr-] [NAB 739] ... 64

Q: Return reported Antibacterial activity in the presence of rifampin (growth inhibition area around a well); argument: OA-Thr-DAla-cy[Dab-Dab-DPhe-Thr-Dab-Dab-Thr-] [NAB 738]
Result: 13

Q: Would you kindly share the measured Antibacterial activity in the presence of rifampin (growth inhibition area around a well) for DA-cy[Dab-Dab-DPhe-Leu-Dab-Dab-Thr-] [NAB 736] ?
Result: 38

Q: Query (substance): OA-Thr-DThr-cy[Dab-Dab-DPhe-Thr-Dab-Dab-Thr-] [NAB 737] ; field requested: Antibacterial activity in the presence of rifampin (growth inhibition area around a well)
Result: 20

----------
system: E. coli IH3080; test: Sensitization to rifampin: well diffusion growth inhibition on LB plates containing rifampin; assay type: cell-based, Escherichia coli; settings: 4 μg of compound, rifampin 0 μg/ml
test-readout: Antibacterial activity in the presence of rifampin (growth inhibition area around a well) (square millimeters)
Dear colleague, please return just the value in square millimeters, with no unit written.

MHA-Abu-Thr-Abu-cy[Dab-Dab-DPhe-Leu-Dab-Dab-Thr-] [NAB 707] ... 5
OA-Thr-Abu-cy[Dab-Dab-DLeu-Leu-Dab-Dab-Thr-] [NAB 718] ... 0
DA-Thr-DSer-cy[Dab-Dab-DPhe-Leu-Dab-Dab-Thr-] [NAB 740] ... 95
OA-Thr-Dab-cy[Dab-Dab-DPhe-Leu-Dab-Abu-Thr-] [NAB 717] ... 0
OA-DAla-DAla-cy[Dab-Dab-DPhe-Leu-Dab-Dab-Thr-] [NAB 733] ... 0
DA-Thr-Abu-cy[Dab-Dab-DPhe-Leu-Dab-Dab-Thr-] [NAB 7062] ... 50
OA-Thr-DAla-cy[Dab-Dab-DPhe-Thr-Dab-Dab-Thr-] [NAB 738] ... 0
OA-Thr-DSer-cy[Dab-Dab-DPhe-Leu-Dab-Dab-Thr-] [NAB 739] ... 133

# next substance below
Q: Any idea what Antibacterial activity in the presence of rifampin (growth inhibition area around a well) was measured for OA-Thr-Abu-cy[Dab-Dab-DPhe-Leu-Dab-Abu-Thr-] [NAB 709] ?
Result: 0
